# test_system: Dog Kidney Na+, K+-ATPase (Canis lupus familiaris)
# measurement_notes: Dog kidney Na+,K+-ATPase inhibition (hydrolysis of 32P-ATP)
# Assay type: biochemical
pIC50: −log10 of the molar value. Counter-ions that a name gives are not always drawn.
Everything with pIC50 lower than 6 is 0.0; everything else, including exactly 6, is 1.0.

molecule: CC[C@H]1/C(=N/O[C@@H]2CCNC2)CC[C@@]2(C)C1[C@@H](O)C[C@@H]1[C@@H]2CC[C@]2(C)C(=O)CC[C@@H]12 (stereo partly shown) [I-bx, hydrochloride]
cat: 1.0
--
molecule: CC[C@H]1/C(=N/OCCN)CC[C@@]2(C)C1C(=O)C[C@@H]1[C@@H]2CC[C@]2(C)C(=O)CC[C@@H]12 (stereo partly shown) [I-bd, hydrochloride]
cat: 1.0
--
molecule: CC[C@H]1/C(=N/O[C@@H]2CCNC2)CC[C@@]2(C)C1C(=O)C[C@@H]1[C@@H]2CC[C@]2(C)C(=O)CC[C@@H]12.Cl (stereo partly shown) [I-be, hydrochloride]
cat: 1.0
--
molecule: CC1(C)/C(=N/O[C@H]2CCNC2)CC[C@@]2(C)C1CC[C@H]1[C@@H]3CC[C@H](O)[C@@]3(C)CC[C@@H]12 (stereo partly shown) [I-al, fumarate]
cat: 0.0
--
molecule: CC1(C)/C(=N/OCCN)CC[C@@]2(C)C1C(=O)C[C@@H]1[C@@H]2CC[C@]2(C)C(=O)CC[C@@H]12 (stereo partly shown) [I-at, fumarate]
cat: 0.0
--
molecule: C[C@@H]1/C(=N/OCCN)CC[C@@]2(C)C1C(=O)C[C@@H]1[C@@H]2CC[C@]2(C)C(=O)CC[C@@H]12.Cl (stereo partly shown) [Compd. 22d, hydrochloride]
cat: 0.0
--
molecule: CC1(C)/C(=N/OCCN)CC[C@@]2(C)C1CC[C@H]1[C@@H]3CC[C@H](O)[C@@]3(C)CC[C@@H]12 (stereo partly shown) [I-ag, fumarate]
cat: 0.0

====

# test_system: Dog Kidney Na+, K+-ATPase (Canis lupus familiaris, UniProt P50997)
# measurement_notes: Dog kidney Na+,K+-ATPase inhibition (hydrolysis of 32P-ATP)
# Format: biochemical
# measurement_setup: dog kidney enzyme; read-out: Na+, K+-ATPase Inhibition IC50
pIC50: −log10 of the molar value.
pIC50 overview

compound: C[C@]12CC[C@H]3[C@@H](CC=C4C5(CC5)/C(=N/OCCN)CC[C@@]43C)[C@@H]1CC[C@@H]2O
test_system: Dog Kidney Na+, K+-ATPase (Canis lupus familiaris, UniProt P50997)
pIC50: 5.82
--
compound: CC12CCC3C(C(O)CC4C5(CCCC5)C(=NOC5CCNC5)CCC34C)C1CCC2O (stereo not drawn)
test_system: Dog Kidney Na+, K+-ATPase (Canis lupus familiaris, UniProt P50997)
pIC50: 5.96
--
compound: C[C@]12CC/C(=N\O[C@@H]3CCNC3)C3(CC3)C1=CC[C@@H]1[C@@H]2CC[C@]2(C)C(=O)CC[C@@H]12
test_system: Dog Kidney Na+, K+-ATPase (Canis lupus familiaris, UniProt P50997)
pIC50: 6.16

====

Maximum dose infused overview
# Test system: anesthetized guinea-pig
# measurement_notes: inotropic effect and lethal dose in anesthetized guinea-pig (infusion over 90 minutes)
# Type: in vivo
# measurement_setup: anesthetized guinea-pig, infusion over 90 min

molecule: CC[C@H]1/C(=N/O[C@@H]2CCNC2)CC[C@@]2(C)C1C(=O)C[C@@H]1[C@@H]2CC[C@]2(C)C(=O)CC[C@@H]12.Cl (stereo partly shown) [I-be]
measurement_unit: µmol/kg
Maximum dose infused: 12.6
--
molecule: C[C@@H]1/C(=N/OCCN)CC[C@@]2(C)C1C(=O)C[C@@H]1[C@@H]2CC[C@]2(C)C(=O)CC[C@@H]12.Cl (stereo partly shown) [Compd. 22d]
measurement_unit: µmol/kg
Maximum dose infused: 250.3
--
molecule: C[C@H]1O[C@@H](O[C@H]2[C@@H](O)C[C@H](O[C@H]3[C@@H](O)C[C@H](O[C@H]4CC[C@@]5(C)[C@H](CC[C@@H]6[C@@H]5C[C@@H](O)[C@]5(C)[C@@H](C7=CC(=O)OC7)CC[C@]65O)C4)O[C@@H]3C)O[C@@H]2C)C[C@H](O)[C@@H]1O [Digoxin, digoxin]
measurement_unit: µmol/kg
Maximum dose infused: 1.16
--
molecule: C[C@]12C[C@@H](F)/C(=N/O[C@@H]3CCNC3)CC1CC[C@@H]1[C@@H]2CC[C@]2(C)C(=O)CC[C@@H]12.Cl (stereo partly shown) [I-bh]
measurement_unit: µmol/kg
Maximum dose infused: 100.8
